ASSAYED_TARGET: Cad1 (UniProt P24813)
Sequence: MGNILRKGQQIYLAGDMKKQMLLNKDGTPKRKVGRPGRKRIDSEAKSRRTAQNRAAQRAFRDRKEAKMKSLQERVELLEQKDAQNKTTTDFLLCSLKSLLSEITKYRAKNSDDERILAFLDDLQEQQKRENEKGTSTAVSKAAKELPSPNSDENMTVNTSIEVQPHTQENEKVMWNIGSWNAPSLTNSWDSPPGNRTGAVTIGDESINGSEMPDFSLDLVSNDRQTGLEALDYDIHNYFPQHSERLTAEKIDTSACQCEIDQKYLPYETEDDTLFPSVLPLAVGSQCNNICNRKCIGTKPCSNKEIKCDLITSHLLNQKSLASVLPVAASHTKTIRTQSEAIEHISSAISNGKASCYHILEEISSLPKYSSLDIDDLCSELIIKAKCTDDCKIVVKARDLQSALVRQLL
EXPERIMENTAL_DETAILS: PBM E-score (8-mer binding enrichment) (E-score (-0.5 to 0.5)); higher = stronger / more preferred TF binding
CONDITION: protein concentration: 100 nM; construct: GST-full length
The full ranking holds about 33,000 sequences; the median of “E-score (-0.5 to 0.5)” is about -0.0014, and the highest 2% start at about 0.25. The sample holds the highest values, similar sequences and a random draw of the others, so the mix is not that of the screen.
REPORTED_METRIC: PBM E-score

> print(dat)
    residue.string         assayed.target  result.number
 1        ACACCAAC  Cad1 (UniProt P24813)        -0.0461
 2        AGATGGGA  Cad1 (UniProt P24813)         -0.204
 3        CCTGATTA  Cad1 (UniProt P24813)           0.31
 4        GACTAAGC  Cad1 (UniProt P24813)          0.228
 5        CGAACCGC  Cad1 (UniProt P24813)        -0.0247
 6        ATTGATTC  Cad1 (UniProt P24813)           0.12
 7        ATAGCTAA  Cad1 (UniProt P24813)         0.0748
 8        ATTGCTAG  Cad1 (UniProt P24813)          0.014
 9        CACTAAGC  Cad1 (UniProt P24813)         0.0972
10        ATTGATTA  Cad1 (UniProt P24813)          0.286
11        GGTGAAAC  Cad1 (UniProt P24813)        -0.0742
12        CACTAATC  Cad1 (UniProt P24813)          0.262
13        GGAACCGA  Cad1 (UniProt P24813)         0.0676
14        CCTGATGA  Cad1 (UniProt P24813)         0.0887
15        CGAACCGA  Cad1 (UniProt P24813)          0.262
16        AGTATCGG  Cad1 (UniProt P24813)         0.0469
17        ATCGCCCG  Cad1 (UniProt P24813)        -0.0312
18        CTAGCTAA  Cad1 (UniProt P24813)        -0.0595
19        GATTCCTA  Cad1 (UniProt P24813)         0.0143
20        ACTGATTG  Cad1 (UniProt P24813)         0.0651
21        AACTAATC  Cad1 (UniProt P24813)          0.179
22        ATTGATTG  Cad1 (UniProt P24813)          0.133
